B1: RSPH3 (parent)
chain: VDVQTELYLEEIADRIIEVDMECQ

variants of: B1; test: protein stability index of a GFP-peptide fusion (GPS, HEK-293T) (PSI 1-6); higher = more stable; settings: c terminus: a fixed tail appended;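 also: lentivirally expressed fusions sorted by FACS into six bins by GFP to DsRed ratio, PSI derived from sequencing read proportions per bin multiplied by bin number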
Criterion: protein stability index meeting or surpassing 3. Met: satisfied. Not met: not satisfied.

Y8M; not satisfied

Query :: Test whether the variant E6A records protein stability index of 3 or higher.
Result :: not satisfied

Query :: What do you get for V19T ?
Result :: satisfied

Query :: What do you get for E18T ?
Result :: not satisfied
